Source: paper PMC11052077

Tested on: HRM cells (human renal mesangial cells)
Test: in vitro
Assay type: cell-based
Details: 20 µM
Would you kindly list Cell Viability (100%), 20 μM, 48 h, HRM for each of these compounds?
A number alone suffices; assume %.

Give the observed Cell Viability (100%), 20 μM, 48 h, HRM of COc1c2n(cc(C(=O)Nc3cccc(-c4cn(Cc5cc(Br)cc(Br)c5)nn4)c3)c1=O)CC1OCCC(C)N1C2=O (stereo not shown) [Compound 6a] for HRM cells (human renal mesangial cells). 84.46

Specify Cell Viability (100%), 20 μM, 48 h, HRM for COc1c2n(cc(C(=O)Nc3cccc(-c4cn(-c5ccccc5C(F)(F)F)nn4)c3)c1=O)CC1OCCC(C)N1C2=O (stereo not shown) [Compound 5c] , system HRM cells (human renal mesangial cells). 2.65

State Cell Viability (100%), 20 μM, 48 h, HRM (HRM cells (human renal mesangial cells)) of COc1c2n(cc(C(=O)Nc3cccc(-c4cn(-c5ccccc5F)nn4)c3)c1=O)CC1OCCC(C)N1C2=O (stereo not shown) [Compound 5a] . 71.18

Give Cell Viability (100%), 20 μM, 48 h, HRM; test system HRM cells (human renal mesangial cells); compound COc1c2n(cc(C(=O)Nc3cccc(-c4cn(-c5cc(C(F)(F)F)ccc5C(F)(F)F)nn4)c3)c1=O)CC1OCCC(C)N1C2=O (stereo not shown) [Compound 5q] 91.40

Tell me its Cell Viability (100%), 20 μM, 48 h, HRM on HRM cells (human renal mesangial cells): COc1c2n(cc(C(=O)Nc3cccc(-c4cn(-c5ccc(C(C)(C)C)cc5)nn4)c3)c1=O)CC1OCCC(C)N1C2=O (stereo not shown) [Compound 5n] 108.06

State Cell Viability (100%), 20 μM, 48 h, HRM (HRM cells (human renal mesangial cells)) of COc1ccccc1-n1cc(-c2cccc(NC(=O)c3cn4c(c(OC)c3=O)C(=O)N3C(C)CCOC3C4)c2)nn1 (stereo not shown) [Compound 5t] . 73.24

Write Cell Viability (100%), 20 μM, 48 h, HRM of COc1c2n(cc(C(=O)Nc3cccc(-c4cn(-c5ccccc5Cl)nn4)c3)c1=O)CC1OCCC(C)N1C2=O (stereo not shown) [Compound 5v] ; system used: HRM cells (human renal mesangial cells) 95.10

* * *

For each entry below, report its Cell Viability (100%), 20 μM, 48 h, HRM value.
Test system: HRM cells (human renal mesangial cells)
Assay: in vitro
Assay type: cell-based
Conditions: 20 µM
Supply the numeric figure in %, leaving out any unit text.

Given the compound CCc1ccc(-n2cc(-c3cccc(NC(=O)c4cn5c(c(OC)c4=O)C(=O)N4C(C)CCOC4C5)c3)nn2)cc1 (stereo not shown) , write its reported Cell Viability (100%), 20 μM, 48 h, HRM. 101.13

Consider the compound COc1cc([N+](=O)[O-])ccc1-n1cc(-c2cccc(NC(=O)c3cn4c(c(OC)c3=O)C(=O)N3C(C)CCOC3C4)c2)nn1 (stereo not shown) and give its recorded Cell Viability (100%), 20 μM, 48 h, HRM. 112.94

Dear colleague, please send me the reported Cell Viability (100%), 20 μM, 48 h, HRM for COc1c2n(cc(C(=O)Nc3cccc(-c4cn(-c5ccccc5OC(F)(F)F)nn4)c3)c1=O)CC1OCCC(C)N1C2=O (stereo not shown) when you can. 70.03

Return reported Cell Viability (100%), 20 μM, 48 h, HRM. Input compound: COc1c2n(cc(C(=O)Nc3cccc(-c4cn(-c5cc(C(F)(F)F)cc(C(F)(F)F)c5)nn4)c3)c1=O)CC1OCCC(C)N1C2=O (stereo not shown) 101.27

Give the value of Cell Viability (100%), 20 μM, 48 h, HRM reported for the following: COc1c2n(cc(C(=O)Nc3cccc(-c4cn(-c5cccc(C(F)(F)F)c5)nn4)c3)c1=O)CC1OCCC(C)N1C2=O (stereo not shown) 16.33

Look up Cell Viability (100%), 20 μM, 48 h, HRM of COc1cccc(Cn2cc(-c3cccc(NC(=O)c4cn5c(c(OC)c4=O)C(=O)N4C(C)CCOC4C5)c3)nn2)c1 (stereo not shown) and report it. 98.59

Please report the measured Cell Viability (100%), 20 μM, 48 h, HRM for COc1c2n(cc(C(=O)Nc3cccc(-c4cn(-c5cccc(C)c5)nn4)c3)c1=O)CC1OCCC(C)N1C2=O (stereo not shown) 66.43
